meta.source: patent US20080182859A1

Tested on: sonic hedgehog pathway
assay details: Human hedgehog reporter assay Daoy-GliLuc (DGL)
Type: cell-based
cond: Daoy human medulloblastoma cells, Gli-luciferase reporter; read-out: Daoy Avg. EC50
Counter-ions that a name gives are not always drawn.
Below, each of the molecules is paired with its reported EC50 value.

# molecule, target or test system, EC50
rows = [
    ("CN[C@H]1CC[C@@H](N(Cc2cc(-c3ccc(Cl)cc3)ccc2OC)C(=O)c2sc3ccccc3c2Cl)CC1 [Compound 308, hydrochloride]", "sonic hedgehog pathway", "< 50 nM"),
    ("CCOc1cc(-c2ccc(OC)c(CN(C(=O)c3sc4c(F)ccc(F)c4c3Cl)[C@H]3CC[C@H](NC)CC3)c2)ccn1", "sonic hedgehog pathway", "< 50 nM"),
    ("CN[C@H]1CC[C@@H](N(Cc2cc(-c3ccncc3)ccc2O)C(=O)c2sc3c(F)ccc(F)c3c2Cl)CC1 [Compound 368, dihydrochloride]", "sonic hedgehog pathway", "< 50 nM"),
    ("CN[C@H]1CC[C@@H](N(Cc2cc(-c3ccc(CCl)cc3)ccc2OC)C(=O)c2sc3ccccc3c2Cl)CC1 [Compound 340, hydrochloride]", "sonic hedgehog pathway", "< 50 nM"),
    ("CN[C@H]1CC[C@H](N(Cc2cc(-c3ccccc3[S+](C)[O-])ccc2OC)C(=O)c2sc3c(F)ccc(F)c3c2Cl)CC1 (stereo partly drawn) [Compound 409, trifluoroacetate]", "sonic hedgehog pathway", "1000 to 2500 nM"),
    ("CN[C@H]1CC[C@@H](N(Cc2cc(-c3ccc(S(C)(=O)=O)cc3)ccc2OC)C(=O)c2sc3c(F)ccc(F)c3c2Cl)CC1 [Compound 335, hydrochloride]", "sonic hedgehog pathway", "< 50 nM"),
    ("CNC1CCC(N(Cc2cc(-c3ccc(N)nc3C)ccc2OC)C(=O)c2sc3ccccc3c2Cl)CC1 (stereo not drawn) [Compound 398, dihydrochloride]", "sonic hedgehog pathway", "250 to 1000 nM"),
    ("CN[C@H]1CC[C@@H](N(Cc2cc(-c3ccc(CO)cc3)ccc2OC)C(=O)c2sc3c(F)ccc(F)c3c2Cl)CC1 [Compound 338, trifluoroacetate]", "sonic hedgehog pathway", "< 50 nM"),
    ("CN[C@H]1CC[C@@H](N(Cc2cc(-c3ccnc(C)c3)ccc2OC)C(=O)c2sc3c(F)ccc(F)c3c2Cl)CC1 [Compound 345, dihydrochloride]", "sonic hedgehog pathway", "< 50 nM"),
    ("CN[C@H]1CC[C@@H](N(Cc2cc(-c3ccc(C#N)cc3)ccc2OC)C(=O)c2sc3cccc(F)c3c2Cl)CC1 [Compound 366, hydrochloride]", "sonic hedgehog pathway", "< 50 nM"),
    ("COc1ccc(-c2cncc(F)c2)cc1CN(C(=O)c1sc2c(F)ccc(F)c2c1Cl)[C@H]1CC[C@@H](N)CC1", "sonic hedgehog pathway", "50 to 250 nM"),
    ("CNC(=O)c1cc(-c2ccc(OC)c(CN(C(=O)c3sc4c(F)ccc(F)c4c3Cl)[C@H]3CC[C@@H](NC)CC3)c2)ccn1 [356 (R16)]", "sonic hedgehog pathway", "< 50 nM"),
]

* * *

Each item that follows carries a reported EC50.
System: sonic hedgehog pathway
assay details: Human hedgehog reporter assay HEPM-GliLuc (HGL)
Type: cell-based
cond: HepM human embryonic palatal mesenchymal cells, Gli-luciferase reporter
Where a name gives a salt, the structure may show the parent alone.

# molecule, EC50
records = [
    ("CN[C@H]1CC[C@@H](N(Cc2cc(-c3ccnc(C(N)=O)c3)ccc2OC)C(=O)c2sc3c(F)ccc(F)c3c2Cl)CC1 [354 (R17)]", "< 50 nM"),
    ("CN[C@H]1CC[C@@H](N(Cc2cc(-c3cc(C)nc(C)c3)ccc2OC)C(=O)c2sc3cccc(F)c3c2Cl)CC1 [Compound 353, dihydrochloride]", "50 to 250 nM"),
    ("CN[C@H]1CC[C@@H](N(Cc2cc(-c3ccnc(C(=O)N(C)C)c3)ccc2OC)C(=O)c2sc3c(F)ccc(F)c3c2Cl)CC1 [Compound R9, dihydrochloride]", "< 50 nM"),
]

* * *

Tested on: sonic hedgehog pathway
assay details: Human hedgehog reporter assay Daoy-GliLuc (DGL)
Type: cell-based
cond: Daoy human medulloblastoma cells, Gli-luciferase reporter; read-out: Daoy Avg. EC50
pEC50: −log10 of the molar value. Where a name gives a salt, the structure may show the parent alone.

# molecule, pEC50
records = [
    ("CCOc1ccc(-c2ccc(C(C)=O)cc2)cc1CN(C(=O)c1sc2ccccc2c1Cl)[C@H]1CC[C@@H](NC)CC1 [Compound 311, hydrochloride]", "> 7.30"),
    ("CCOc1ccc(-c2ccc(NC)nc2)cc1CN(C(=O)c1sc2ccccc2c1Cl)[C@H]1CC[C@H](NC)CC1 [Compound 399, dihydrochloride]", "6.00 to 6.60"),
    ("CN[C@H]1CC[C@@H](N(Cc2cc(-c3ccnc(C(=O)N(C)C)c3)ccc2OC)C(=O)c2sc3c(F)ccc(F)c3c2Cl)CC1 [Compound R9, dihydrochloride]", "> 7.30"),
]

* * *

Test system: sonic hedgehog pathway
assay details: Human hedgehog reporter assay HEPM-GliLuc (HGL)
Format: cell-based
cond: HepM human embryonic palatal mesenchymal cells, Gli-luciferase reporter
Counter-ions that a name gives are not always drawn.

# compound, EC50
measured = [
    ("CN[C@H]1CC[C@@H](N(Cc2cc(-c3ccncc3)ccc2OC)C(=O)c2sc3cccc(F)c3c2Cl)CC1 [Compound 359, dihydrochloride]", "< 50 nM"),
    ("CN[C@H]1CC[C@@H](N(Cc2cc(-c3ccc(S(C)(=O)=O)cc3)ccc2OC)C(=O)c2sc3ccccc3c2Cl)CC1 [Compound R7, hydrochloride]", "< 50 nM"),
    ("CN[C@H]1CC[C@@H](N(Cc2cc(-c3ccc(C#N)cc3)ccc2OC)C(=O)c2sc3ccccc3c2Cl)CC1 [Compound 301, hydrochloride]", "50 to 250 nM"),
]

* * *

List of pEC50 values.
System: sonic hedgehog pathway
assay details: Human hedgehog reporter assay HEPM-GliLuc (HGL)
Type: cell-based
cond: HepM human embryonic palatal mesenchymal cells, Gli-luciferase reporter
Excerpt: Mouse (TM3: mouse Leydig cells; S12: mouse embryonic mesenchymal cells) and human (Daoy: human medulloblastoma cell; HepM: human embryonic palatal mesenchymal cell) cell lines are used to screen small molecules for their ability to modulate the activity of the sonic hedgehog pathway (Table 1, Table 2, and Table 3). […]
pEC50: −log10 of the molar value. Counter-ions that a name gives are not always drawn.

# molecule, target or test system, pEC50
data = [
    ("CCOc1ccc(-c2ccc(C)nc2)cc1CN(C(=O)c1sc2ccccc2c1Cl)[C@H]1CC[C@@H](NC)CC1 [Compound R4, dihydrochloride]", "sonic hedgehog pathway", "6.60 to 7.30"),
    ("CCOc1ccc(-c2ccc(N)nc2)cc1CN(C(=O)c1sc2ccccc2c1Cl)[C@H]1CC[C@H](NC)CC1 [Compound 396, dihydrochloride]", "sonic hedgehog pathway", "6.60 to 7.30"),
    ("CNc1ccc(-c2ccc(OC)c(CN(C(=O)c3sc4ccccc4c3Cl)[C@H]3CC[C@H](NC)CC3)c2)cn1 [Compound 397, dihydrochloride]", "sonic hedgehog pathway", "6.00 to 6.60"),
    ("CNC(=O)c1cc(-c2ccc(OC)c(CN(C(=O)c3sc4c(F)ccc(F)c4c3Cl)[C@H]3CC[C@@H](NC)CC3)c2)ccn1 [356 (R16)]", "sonic hedgehog pathway", "> 7.30"),
    ("CN[C@H]1CC[C@@H](N(Cc2cc(-c3ccc(C(N)=O)cc3)ccc2OC)C(=O)c2sc3cccc(F)c3c2Cl)CC1 [Compound 346, hydrochloride]", "sonic hedgehog pathway", "> 7.30"),
    ("CN[C@H]1CC[C@@H](N(Cc2cc(-c3ccc(OC)cc3)ccc2OC)C(=O)c2sc3ccccc3c2Cl)CC1 [Compound 305, hydrochloride]", "sonic hedgehog pathway", "6.00 to 6.60"),
]

* * *

Test system: sonic hedgehog pathway
assay details: Human hedgehog reporter assay HEPM-GliLuc (HGL)
Format: cell-based
cond: HepM human embryonic palatal mesenchymal cells, Gli-luciferase reporter
Where a name gives a salt, the structure may show the parent alone.

# molecule, EC50
measured = [
    ("CN[C@H]1CC[C@@H](N(Cc2cc(-c3cncnc3)ccc2OC)C(=O)c2sc3c(F)ccc(F)c3c2Cl)CC1 [343 (R15)]", "< 50 nM"),
    ("CNc1cc(-c2ccc(OC)c(CN(C(=O)c3sc4c(F)ccc(F)c4c3Cl)[C@H]3CC[C@@H](NC)CC3)c2)ccn1 [Compound 357, bis(trifluoroacetate)]", "< 50 nM"),
    ("CN[C@H]1CC[C@@H](N(Cc2cc(-c3cc(C)nc(C)c3)ccc2OC)C(=O)c2sc3ccccc3c2Cl)CC1 [Compound R1, dihydrochloride]", "50 to 250 nM"),
    ("CN[C@H]1CC[C@H](N(Cc2cc(-c3ccc(C)nc3)ccc2OC)C(=O)c2sc3cccc(F)c3c2Cl)CC1 [Compound 406, dihydrochloride]", "50 to 250 nM"),
    ("CN[C@H]1CC[C@@H](N(Cc2cc(-c3ccncc3)ccc2O)C(=O)c2sc3c(F)ccc(F)c3c2Cl)CC1 [Compound 368, dihydrochloride]", "< 50 nM"),
]
